Test system: Hs-578T
PROCEDURE_SUMMARY: NCI tumour cell line growth inhibition, 48 h
Active and inactive are the calls of the source. Rule as the data show it: active = GI50 up to about 1.1 µM and inactive = higher.
Outcome codes: label 1 = active, label 0 = inactive

[
  {
    "COMPOUND": "Nc1ccc(-c2nc3ccccc3s2)cc1Br",
    "GROUP": "label 0"
  },
  {
    "COMPOUND": "CC(=O)C1C(=O)C(=O)N(c2ccc([N+](=O)[O-])cc2[N+](=O)[O-])C1=O (configuration not stated)",
    "GROUP": "label 0"
  },
  {
    "COMPOUND": "C/C(=N\\N)C(CN1CCCCC1)C(c1ccccc1)c1c(O)c2ccccc2oc1=O (configuration not stated)",
    "GROUP": "label 0"
  },
  {
    "COMPOUND": "Cc1nc(O)nc2nc3ccc(Cl)cc3c(N(CCO)CCO)c12",
    "GROUP": "label 0"
  },
  {
    "COMPOUND": "COc1cccc(CCn2c(N)c(C(=O)O)c3ccc([N+](=O)[O-])cc3c2=O)c1",
    "GROUP": "label 0"
  },
  {
    "COMPOUND": "CC(CNC(N)=O)NC(N)=O (configuration not stated)",
    "GROUP": "label 0"
  },
  {
    "COMPOUND": "Nc1nc(N)c2nnn(C[C@H]3CC[C@@H](CO)C3)c2n1",
    "GROUP": "label 0"
  },
  {
    "COMPOUND": "COc1ccc2c(c1)c[n+](C)c1c3cc(OC)c(OC)cc3ccc21",
    "GROUP": "label 0"
  },
  {
    "COMPOUND": "O=c1nc(N2CCN(c3ccccc3)CC2)ccn1C1OC(CO)C(O)C1O (configuration not stated)",
    "GROUP": "label 0"
  },
  {
    "COMPOUND": "CC[C@@]1(O)C(=O)OCc2c1cc1n(c2=O)Cc2cc3cc(O)ccc3nc2-1 [HYDROXYCAMPTOTHECIN]",
    "GROUP": "label 1"
  },
  {
    "COMPOUND": "CN(C)CCNC(=O)c1nc([N+](=O)[O-])cn1C",
    "GROUP": "label 0"
  },
  {
    "COMPOUND": "O=C(CC(=O)CC(O)(C(F)(F)F)C(F)(F)F)CC(O)(C(F)(F)F)C(F)(F)F",
    "GROUP": "label 0"
  },
  {
    "COMPOUND": "Cc1c(C(=O)Nc2ccccc2)nnn1-c1ccnc2cc(C(F)(F)F)ccc12",
    "GROUP": "label 0"
  },
  {
    "COMPOUND": "CN(C)CCNC1=CC(=O)c2nc3ccccc3c3ccnc1c23",
    "GROUP": "label 0"
  },
  {
    "COMPOUND": "COc1ccc(C(O)c2ccccn2)cc1 (configuration not stated)",
    "GROUP": "label 0"
  },
  {
    "COMPOUND": "O=C(OCC1OC2OC(c3ccccc3)(n3ccc4c([N+](=O)[O-])ccnc43)OC2C1OC(=O)c1ccccc1)c1ccccc1 (configuration not stated)",
    "GROUP": "label 0"
  },
  {
    "COMPOUND": "[N-]=[N+]=Nc1c(Cl)c(Cl)nc2ccccc12",
    "GROUP": "label 0"
  },
  {
    "COMPOUND": "COc1ccc(-n2cnc3c(NC(Cc4ccccc4)C(=O)O)ncnc32)cc1 (configuration not stated)",
    "GROUP": "label 0"
  },
  {
    "COMPOUND": "C/C(=C\\COP(=O)(O)OP(=O)(O)O)CC/C=C(\\C)CNc1c(F)c(F)c(F)c(F)c1F",
    "GROUP": "label 0"
  },
  {
    "COMPOUND": "CC(=O)OC1=CC2=CC[C@H]3[C@@H]4CCC(=O)[C@@]4(C)CC(=O)[C@]3(S)[C@@]2(C)CC1",
    "GROUP": "label 0"
  },
  {
    "COMPOUND": "Cn1cnc([N+](=O)[O-])c1[Se]c1ncnc2nc[nH]c12",
    "GROUP": "label 0"
  },
  {
    "COMPOUND": "C/C(=N\\Nc1nc2ccccc2o1)c1cc2ccccc2cn1",
    "GROUP": "label 1"
  },
  {
    "COMPOUND": "O=C1Sc2cc3ccccc3cc2C(=O)Sc2cc3ccccc3cc21",
    "GROUP": "label 0"
  },
  {
    "COMPOUND": "CCN(CC)c1ccc2cc(-c3csc(-c4ccc(N(C)C)cc4)n3)c(=O)oc2c1",
    "GROUP": "label 0"
  },
  {
    "COMPOUND": "COc1cc([N+](=O)[O-])c(S(=O)(=O)O)cc1-n1nc(C(=O)Nc2ccccc2)n[n+]1-c1cc(S(=O)(=O)[O-])c([N+](=O)[O-])cc1OC",
    "GROUP": "label 0"
  },
  {
    "COMPOUND": "O=C(CSCC(=O)N/N=C\\c1cccc(Br)c1)N/N=C\\c1cccc(Br)c1",
    "GROUP": "label 0"
  },
  {
    "COMPOUND": "O=C(Cc1ccc(Cl)c(Cl)c1)NCC1(N2CCCCC2)CCCCC1",
    "GROUP": "label 0"
  },
  {
    "COMPOUND": "CC#CC#C/C=C1\\C=CC2(OC=CC2OC(C)=O)O1 (configuration not stated)",
    "GROUP": "label 0"
  },
  {
    "COMPOUND": "O=c1n(CCO)nc2n1CCCN2",
    "GROUP": "label 0"
  },
  {
    "COMPOUND": "COc1ccc(C(=O)N2CCN(c3ccc4[nH]c(=O)oc4c3)CC2)cc1",
    "GROUP": "label 0"
  },
  {
    "COMPOUND": "Cn1c(=O)oc2cc(Br)ccc21",
    "GROUP": "label 0"
  },
  {
    "COMPOUND": "Nc1c(Br)cc(-c2cc(Br)c(N)c(Br)c2)cc1Br",
    "GROUP": "label 0"
  },
  {
    "COMPOUND": "COc1ccc(-c2cc(O)c3cc(C)cnc3n2)cc1",
    "GROUP": "label 0"
  },
  {
    "COMPOUND": "CC(=O)Oc1ccc2c(c1)c1c(OC(C)=O)c3ccccc3c(OC(C)=O)c1n2Cc1cccc(C)c1",
    "GROUP": "label 0"
  },
  {
    "COMPOUND": "COc1cc(/C=C2\\N=C(c3ccccc3)N(/N=C3\\C(=O)Nc4ccccc43)C2=O)cc(OC)c1OC",
    "GROUP": "label 0"
  },
  {
    "COMPOUND": "COc1ccc(C(=O)N(Cc2cccnc2)C(=S)N(Cc2cccnc2)C(=O)c2ccc(OC)cc2)cc1",
    "GROUP": "label 0"
  },
  {
    "COMPOUND": "COC1(C(C)(C)C)C=C(C(C)(C)C)P(=O)(O)O1 (configuration not stated)",
    "GROUP": "label 0"
  },
  {
    "COMPOUND": "C[C@@H](NC(C#N)c1ccco1)c1ccccc1 (some centres not stated)",
    "GROUP": "label 0"
  },
  {
    "COMPOUND": "O=C(O)c1cnccc1-c1cc(=O)[nH]n1-c1ccccc1",
    "GROUP": "label 0"
  },
  {
    "COMPOUND": "C[C@]1(O)CC(=O)c2c(c(-c3ccc4cc5c(c(O)c4c3O)C(=O)C[C@@](C)(O)C5)c3cccc(O)c3c2O)C1",
    "GROUP": "label 0"
  },
  {
    "COMPOUND": "NC(CSC(=O)c1ccccc1)C(=O)O (configuration not stated)",
    "GROUP": "label 0"
  },
  {
    "COMPOUND": "Cc1cc(N(CCC#N)CCC#N)ccc1/C=C(\\NC(=O)/C=C/c1ccccc1)C(=O)NN",
    "GROUP": "label 0"
  }
]

Attribution: ChEMBL document CHEMBL1201862
